Experiment: Double-blind randomized crossover pharmacokinetic study, single oral 900 μg vitamin D3 or 25(OH)D3
Type: in vivo, human
Details: both sexes, human, serum, po, 900 ug, healthy participants (N = 10); single oral 900 μg; serum level of the administered substance; mean ± SEM
Procedure: The conclusions as presented herein are based on the following experiments: In a double-blinded cross-over study single high dosages (900 μg total in two soft gel capsules containing 450 μg) of either vitamin D3 or 25(OH)D3 were administered to vitamin D-deficient volunteers including healthy controls as well as subjects with a history of malabsorption. At the outset, the BMI was determined. […] All the samples were analyzed for their contents in vitamin D3 per se as well as 25(OH)D3. […]
measurement_name: AUC

**Q:** Any idea what its AUC is? The compound is C=C1CC[C@H](O)C/C1=C/C=C1\CCC[C@]2(C)[C@@H]([C@H](C)CCCC(C)(C)O)CC[C@@H]12 [25-hydroxyvitamin D3]
**A:** 3130 ng·h/mL

---

assay: Double-blind randomized crossover pharmacokinetic study, single oral 900 μg vitamin D3 or 25(OH)D3; type: in vivo, human; settings: both sexes, human, serum, po, 900 ug, healthy participants with lower BMI (N = 5); single oral 900 μg; mean ± SEM
measurement_name: Tmax (h)
Write down the numeric answer in h and omit the unit.

**Q:** Any idea what its Tmax is? The molecule is C=C1CC[C@H](O)C/C1=C/C=C1\CCC[C@]2(C)[C@@H]([C@H](C)CCCC(C)(C)O)CC[C@@H]12 [25-hydroxyvitamin D3]
**A:** 7.2

---

assay: Double-blind randomized crossover pharmacokinetic study, single oral 900 μg vitamin D3 or 25(OH)D3; format: in vivo, human; conditions: both sexes, human, in vivo, po, 900 ug, healthy participants with lower BMI (N = 5); single oral 900 μg; mean ± SEM
measurement_name: AUC (ng·h/mL)
Write down the numeric answer in ng·h/mL and omit the unit.

**Q:** Any idea what its AUC is? The compound is C=C1CC[C@H](O)C/C1=C/C=C1\CCC[C@]2(C)[C@@H]([C@H](C)CCCC(C)C)CC[C@@H]12
**A:** 4430

---

Assay: Double-blind randomized crossover pharmacokinetic study, single oral 900 μg vitamin D3 or 25(OH)D3
Type: in vivo, human
Details: both sexes, human, in vivo, po, 900 ug, healthy participants with lower BMI (N = 5); single oral 900 μg; mean ± SEM
Protocol: The conclusions as presented herein are based on the following experiments: In a double-blinded cross-over study single high dosages (900 μg total in two soft gel capsules containing 450 μg) of either vitamin D3 or 25(OH)D3 were administered to vitamin D-deficient volunteers including healthy controls as well as subjects with a history of malabsorption. At the outset, the BMI was determined. […] All the samples were analyzed for their contents in vitamin D3 per se as well as 25(OH)D3. […]
measurement_name: Cmax (ng/mL)
Write down the numeric answer in ng/mL and omit the unit.

**Q:** Any idea what its Cmax is? The compound is C=C1CC[C@H](O)C/C1=C/C=C1\CCC[C@]2(C)[C@@H]([C@H](C)CCCC(C)C)CC[C@@H]12 [vitamin D3, cholecalciferol]
**A:** 62.6

---

experiment: Double-blind randomized crossover pharmacokinetic study, single oral 900 μg vitamin D3 or 25(OH)D3; assay type: in vivo, human; settings: both sexes, human, serum, po, 900 ug, healthy participants with higher BMI (N = 5); single oral 900 μg; mean ± SEM
measurement_name: AUC (ng·h/mL)
Write down the numeric answer in ng·h/mL and omit the unit.

**Q:** Any idea what its AUC is? The compound is C=C1CC[C@H](O)C/C1=C/C=C1\CCC[C@]2(C)[C@@H]([C@H](C)CCCC(C)(C)O)CC[C@@H]12 [25-hydroxyvitamin D3]
**A:** 2620

---

experiment: Double-blind randomized crossover pharmacokinetic study, single oral 900 μg vitamin D3 or 25(OH)D3; type: in vivo, human; conditions: both sexes, human, serum, po, 900 ug, healthy participants with lower BMI (N = 5); single oral 900 μg; mean ± SEM
measurement_name: Cmax (µg/mL)
Write down the numeric answer in µg/mL and omit the unit.

**Q:** Any idea what its Cmax is? The molecule is C=C1CC[C@H](O)C/C1=C/C=C1\CCC[C@]2(C)[C@@H]([C@H](C)CCCC(C)(C)O)CC[C@@H]12 [25-hydroxyvitamin D3]
**A:** 0.0248

---

assay: Double-blind randomized crossover pharmacokinetic study, single oral 900 μg vitamin D3 or 25(OH)D3; assay type: in vivo, human; conditions: both sexes, human, in vivo, po, 900 μg, healthy participants with higher BMI (N = 5); single oral 900 μg; mean ± SEM; read-out: Ctrough (trough level at day 14)
measurement_name: concentration at 14 days (ng/mL)
Write down the numeric answer in ng/mL and omit the unit.

**Q:** Any idea what its concentration at 14 days is? The compound is C=C1CC[C@H](O)C/C1=C/C=C1\CCC[C@]2(C)[C@@H]([C@H](C)CCCC(C)C)CC[C@@H]12
**A:** 0

---

assay: Double-blind randomized crossover pharmacokinetic study, single oral 900 μg vitamin D3 or 25(OH)D3; assay type: in vivo, human; conditions: both sexes, human, in vivo, po, 900 ug, healthy participants with higher BMI (N = 5); single oral 900 μg; mean ± SEM
measurement_name: Tmax
Please state the value followed by its unit.

**Q:** Any idea what its Tmax is? The molecule is C=C1CC[C@H](O)C/C1=C/C=C1\CCC[C@]2(C)[C@@H]([C@H](C)CCCC(C)C)CC[C@@H]12
**A:** 9.6 h

---

test: Double-blind randomized crossover pharmacokinetic study, single oral 900 μg vitamin D3 or 25(OH)D3; assay type: in vivo, human; conditions: both sexes, human, in vivo, po, 900 ug, healthy participants with lower BMI (N = 5); single oral 900 μg; mean ± SEM; read-out: T1/2 (elimination half-life) (converted)
measurement_name: half-life (h)
Write down the numeric answer in h and omit the unit.

**Q:** Any idea what its half-life is? The compound is C=C1CC[C@H](O)C/C1=C/C=C1\CCC[C@]2(C)[C@@H]([C@H](C)CCCC(C)C)CC[C@@H]12
**A:** 39

---

assay: Double-blind randomized crossover pharmacokinetic study, single oral 900 μg vitamin D3 or 25(OH)D3; assay type: in vivo, human; details: both sexes, human, serum, po, 900 ug, healthy participants (N = 10); single oral 900 μg; mean ± SEM
measurement_name: Tmax (h)
Write down the numeric answer in h and omit the unit.

**Q:** Any idea what its Tmax is? The molecule is C=C1CC[C@H](O)C/C1=C/C=C1\CCC[C@]2(C)[C@@H]([C@H](C)CCCC(C)(C)O)CC[C@@H]12 [25-hydroxyvitamin D3]
**A:** 11.2

---

assay: Double-blind randomized crossover pharmacokinetic study, single oral 900 μg vitamin D3 or 25(OH)D3; format: in vivo, human; conditions: both sexes, human, serum, po, 900 μg, healthy participants (N = 10); single oral 900 μg; mean ± SEM; read-out: Ctrough (trough level at day 14)
measurement_name: concentration at 14 days (ng/mL)
Write down the numeric answer in ng/mL and omit the unit.

**Q:** Any idea what its concentration at 14 days is? The compound is C=C1CC[C@H](O)C/C1=C/C=C1\CCC[C@]2(C)[C@@H]([C@H](C)CCCC(C)(C)O)CC[C@@H]12 [25-hydroxyvitamin D3]
**A:** 6.1

---

assay: Double-blind randomized crossover pharmacokinetic study, single oral 900 μg vitamin D3 or 25(OH)D3; format: in vivo, human; conditions: both sexes, human, in vivo, po, 900 ug, patients with fat malabsorption (N = 6); single oral 900 μg; mean ± SEM
measurement_name: Tmax (h)
Write down the numeric answer in h and omit the unit.

**Q:** Any idea what its Tmax is? The compound is C=C1CC[C@H](O)C/C1=C/C=C1\CCC[C@]2(C)[C@@H]([C@H](C)CCCC(C)C)CC[C@@H]12 [vitamin D3, cholecalciferol]
**A:** 11.3

---

test: Double-blind randomized crossover pharmacokinetic study, single oral 900 μg vitamin D3 or 25(OH)D3; assay type: in vivo, human; settings: both sexes, human, in vivo, po, 900 ug, healthy participants (N = 10); single oral 900 μg; serum level of the administered substance; mean ± SEM
measurement_name: AUC
Please state the value followed by its unit.

**Q:** Any idea what its AUC is? The compound is C=C1CC[C@H](O)C/C1=C/C=C1\CCC[C@]2(C)[C@@H]([C@H](C)CCCC(C)C)CC[C@@H]12
**A:** 3.26 µg·h/mL

---

test: Double-blind randomized crossover pharmacokinetic study, single oral 900 μg vitamin D3 or 25(OH)D3; assay type: in vivo, human; details: both sexes, human, serum, po, 900 ug, healthy participants (N = 10); single oral 900 μg; mean ± SEM
measurement_name: Cmax (µg/mL)
Write down the numeric answer in µg/mL and omit the unit.

**Q:** Any idea what its Cmax is? The compound is C=C1CC[C@H](O)C/C1=C/C=C1\CCC[C@]2(C)[C@@H]([C@H](C)CCCC(C)(C)O)CC[C@@H]12 [25-hydroxyvitamin D3]
**A:** 0.0231
